target: Recombinant human KIF18A (1-467 His-tagged) (Homo sapiens, UniProt Q8NI77); construct: Recombinant human KIF18A (1-467 His-tagged) protein; His; test: KIF18A Enzyme Assay: microtubule-stimulated ATPase activity (ADP-Glo); settings: 30 nM KIF18A, 30 μg/mL pig microtubules, ATP 75 μM (Km), ADP-Glo luminescence
Sequence (Q8NI77 1-467): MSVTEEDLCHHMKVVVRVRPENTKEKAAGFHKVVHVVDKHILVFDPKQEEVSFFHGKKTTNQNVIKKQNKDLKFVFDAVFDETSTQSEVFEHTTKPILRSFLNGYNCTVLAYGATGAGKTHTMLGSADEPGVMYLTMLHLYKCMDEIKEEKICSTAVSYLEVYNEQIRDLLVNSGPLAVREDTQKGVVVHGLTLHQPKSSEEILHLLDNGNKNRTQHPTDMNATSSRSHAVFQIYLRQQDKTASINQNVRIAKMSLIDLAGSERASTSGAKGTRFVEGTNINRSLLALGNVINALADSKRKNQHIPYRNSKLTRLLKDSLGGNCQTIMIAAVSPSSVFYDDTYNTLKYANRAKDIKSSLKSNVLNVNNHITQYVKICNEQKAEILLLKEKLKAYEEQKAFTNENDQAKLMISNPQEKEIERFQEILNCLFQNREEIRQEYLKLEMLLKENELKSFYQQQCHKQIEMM
Sequence (P02550 whole entry partner): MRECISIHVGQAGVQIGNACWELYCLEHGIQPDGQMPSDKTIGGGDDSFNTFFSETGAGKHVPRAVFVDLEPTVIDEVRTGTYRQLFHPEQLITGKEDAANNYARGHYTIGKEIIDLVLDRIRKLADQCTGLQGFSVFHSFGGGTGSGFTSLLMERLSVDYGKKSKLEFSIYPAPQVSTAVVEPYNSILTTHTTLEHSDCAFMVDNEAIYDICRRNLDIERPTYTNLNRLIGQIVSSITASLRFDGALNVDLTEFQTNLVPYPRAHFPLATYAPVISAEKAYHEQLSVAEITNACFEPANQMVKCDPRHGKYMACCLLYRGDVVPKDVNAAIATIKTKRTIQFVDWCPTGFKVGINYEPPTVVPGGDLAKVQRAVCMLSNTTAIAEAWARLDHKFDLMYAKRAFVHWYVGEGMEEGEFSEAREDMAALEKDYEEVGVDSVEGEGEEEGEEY
Sequence (P02554 whole entry partner): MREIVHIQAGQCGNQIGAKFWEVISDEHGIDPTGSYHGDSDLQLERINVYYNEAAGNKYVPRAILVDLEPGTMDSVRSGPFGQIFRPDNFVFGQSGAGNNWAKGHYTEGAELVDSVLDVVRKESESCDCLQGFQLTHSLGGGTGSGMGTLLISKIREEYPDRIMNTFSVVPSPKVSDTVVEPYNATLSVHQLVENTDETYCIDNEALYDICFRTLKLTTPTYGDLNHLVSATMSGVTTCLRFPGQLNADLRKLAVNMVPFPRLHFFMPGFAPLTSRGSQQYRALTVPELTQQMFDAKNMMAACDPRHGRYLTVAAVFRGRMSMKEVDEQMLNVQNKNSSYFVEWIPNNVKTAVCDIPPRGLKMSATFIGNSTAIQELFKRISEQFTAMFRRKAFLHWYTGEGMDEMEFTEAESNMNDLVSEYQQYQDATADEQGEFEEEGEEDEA
pIC50: −log10 of the molar value.
Label True for high-side pIC50 (at or above 7) and False for low-side pIC50 (below it).

Could you tell me if the measured pIC50 of C[C@@H](CO)S(=O)(=O)Nc1ccc(C(=O)Nc2cccc(OCCC(F)(F)F)n2)c(N2CCC3(CC2)CC3)c1 (single isomer, unassigned) reaches 7 or more?
True

Could you tell me if the measured pIC50 of Cc1cc(NC(=O)c2ccc(NS(=O)(=O)[C@H](C)CO)cc2N2CCC3(CC2)CC3)nc(N2CC(F)(F)C2)c1 (single isomer, unassigned) reaches 7 or more?
True

Could you tell me if the measured pIC50 of `CC1(S(=O)(=O)Nc2ccc(C(=O)Nc3cccc(N4CCc5cc(Cl)ccc54)n3)c(N3CCC4(CC3)CC4)c2)CC1` reaches 7 or more?
True

Could you tell me if the measured pIC50 of `Cc1cc(NC(=O)c2ccc(NS(=O)(=O)CCO)cc2N2CCC3(CC2)CC3)nc(C2CCC(F)(F)CC2)c1` reaches 7 or more?
True

Could you tell me if the measured pIC50 of `Cc1ccc(NC(=O)c2ccc(NS(=O)(=O)CCO)cc2N2CCC3(CC2)CC3)nc1N1CCC(F)(F)CC1` reaches 7 or more?
True

Could you tell me if the measured pIC50 of C[C@H](CO)S(=O)(=O)Nc1ccc(C(=O)Nc2cccc(OCCC(F)(F)F)n2)c(N2CCC3(CC2)CC3)c1 (single isomer, unassigned) reaches 7 or more?
True

Could you tell me if the measured pIC50 of `C[C@@H]1CN(c2cccc(NC(=O)c3ccc(S(=O)(=O)N4CC(C#N)C4)cc3N3CCC4(CC3)CC4)n2)CCO1` reaches 7 or more?
False

Could you tell me if the measured pIC50 of `C[C@@H]1CN(c2cccc(NC(=O)c3ccc(N4CCNS4(=O)=O)cc3N3CCC4(CC3)CC4)n2)CCO1` reaches 7 or more?
False
